molecular target: MS2 coat protein, dlFG mutant (Escherichia phage MS2, UniProt P03612, del68-81insG); assay: 4 mM Mg2+; no ligand; RNA-MaP array; 100 mM Tris-HCl pH 7.5, 80 mM KCl, 4 mM MgCl2, 0.1 mg/mL BSA, 1 mM DTT, 0.01 mg/mL yeast tRNA, 0.01% Tween-20; protein 1.5 nM to 3 uM; 37 C (Table S3); details: chain copies: 2; label: tethered by stalled RNA polymerase
Known Kd of a selection of binders
Measure Name: Kd (nM)

INSERT INTO assay_data (binder, value_qualifier, reported_result) VALUES
  ('Eterna 7693586 (Exclusion - Tryptophan B) (ssRNA) RNA: GGAUAGGACACGGCCGCCACUACCGAGGAUACUCGAAACAUUUCCUCAGAUGAGUGAUGUUCAUCUAGGACCGGGUGUCCUAUCG', '>', 3000),
  ('Eterna 7727764 (Exclusion - Tryptophan B) (ssRNA) RNA: AAUAAACAGUCGGCCGCCACUUCAAUAGACUUAUUAUUGAAUGGUGUAGUUCUUCAGUGAUGUUGAAGGACCGGGACUUUCGCGC', '>', 3000),
  ('Eterna 7750603 (Exclusion - Arginine A) (ssRNA) RNA: GGCCGCAAGGCGAGCGCUCCCACUCCGGAAGGAGCGCCCGUAAGGGCAGGUAGGUCGCCGGAGUGAUGUUCCGGUGGAGGGCUCG', '>', 3000),
  ('Eterna 6069320 (Exclusion 4) (ssRNA) RNA: GGGUUGUGAGGAUAUUAGUUGUACGUCAAUAGACGUAUGGGUGAGAAGGCACAUGAGGAUCACCCAUGUUCCUG', '=', 107),
  ('Eterna 7717543 (Exclusion - Theophylline B) (ssRNA) RNA: CCAUUCAUUUACGAUACCAGUCUAAUAUAUUUAAUCAAAACCCUCGCCGAGUGAUGUUCGGACCCUUGGCAGCGUCUGCGACAGG', '>', 3000),
  ('Eterna 11543 (Sensor v3, turn-off variant 1) (ssRNA) RNA: AAAGAAGAGAGAAAAUAACACAUGAGGAUCACCCAUGUGAGAAGUUGAGGGUGAUACAGGCUUUAUGCUCGUCUUAU', '=', 203),
  ('Eterna 6402815 (Same State NG 2) (ssRNA) RNA: ACCUCGUACACAGGAUAUGAUUACUUGCAGCCUGCGUUGACAUGAGGAUCACCCAUGUGGACUGAUCAGAAGGGUGAACGGAAG', '=', 571),
  ('Eterna 5954774 (Same State NG 2) (ssRNA) RNA: GUAGCAUACCGAGGAUAUUCAUAUAAUACAUGAGGAUCACCCAUGUUAUAUAGGCGAAAGCCUUGGGAGAAGGCGGAAUGCUAC', '=', 16.3),
  ('Eterna 6436150 (Inverted Small Loop Exclusion NG 3) (ssRNA) RNA: AACCGCGACCGGCCUGGCACGCCGAGAAGGGUACGUGACCUGCUUUACAUGAGGAUCACCCAUGUACAGGAUAUCGGAUAGCCG', '=', 5.68);
